Attribution: ChEMBL document CHEMBL2380242

# Test system: Rattus norvegicus
# procedure.text: Volume of distribution in rat at 5 mg/kg, po
# Assay type: ADME, organism-based
# Design: dose 5 mg/kg, route oral
# study.conditions: in vivo
Measured Vd by item
endpoint: Vd (L/kg)

line.notation | endpoint | numeric.readout
O=C(O)C[C@@H]1COc2cc3c(cc21)OC[C@@H](c1cccc(Cl)c1)O3 | Vd | 0.21
O=C(O)C[C@@H]1COc2cc3c(cc21)OC[C@@H](c1cccc(C(F)(F)F)c1)O3 | Vd | 0.23
O=C(O)C[C@@H]1COc2cc3c(cc21)OC[C@@H](c1cccc(Br)c1)O3 | Vd | 0.25
O=C(O)C[C@@H]1COc2cc3c(cc21)OC[C@@H](c1ccc(Cl)c(Cl)c1)O3 | Vd | 0.25

###

Measured Cmax by item
# procedure.text: Cmax in cynomolgus monkey at 6 mg/kg, po
# Assay type: ADME, organism-based, Macaca fascicularis
# Parameters: dose 6 mg/kg, route oral
# study.conditions: in vivo
endpoint: Cmax (ng/mL)

line.notation | numeric.readout
O=C(O)C[C@@H]1COc2cc3c(cc21)OC[C@@H](c1cccc(Br)c1)O3 | 5360
O=C(O)C[C@@H]1COc2cc3c(cc21)OC[C@@H](c1cccc(C(F)(F)F)c1)O3 | 7700
O=C(O)C[C@@H]1COc2cc3c(cc21)OC[C@@H](c1cccc(Cl)c1)O3 | 19700

###

# procedure.text: Cmax in beagle dog at 1 mg/kg, po
# Type: ADME, organism-based, Canis lupus familiaris
# Parameters: dose 1 mg/kg, route oral
# study.conditions: in vivo

line.notation | unit.info | Cmax
O=C(O)C[C@@H]1COc2cc3c(cc21)OC[C@@H](c1cccc(C(F)(F)F)c1)O3 | ng/mL | 2580
O=C(O)C[C@@H]1COc2cc3c(cc21)OC[C@@H](c1cccc(Br)c1)O3 | ng/mL | 2270
O=C(O)C[C@@H]1COc2cc3c(cc21)OC[C@@H](c1cccc(Cl)c1)O3 | ng/mL | 2670

###

# procedure.text: Cmax in rat at 5 mg/kg, po
# Format: ADME, organism-based
# Parameters: dose 5 mg/kg, route oral
# study.conditions: in vivo
Measured Cmax by item

line.notation | Cmax, ng/mL
O=C(O)C[C@@H]1COc2cc3c(cc21)OC[C@@H](c1ccc(Cl)c(Cl)c1)O3 | 18900
O=C(O)C[C@@H]1COc2cc3c(cc21)OC[C@@H](c1cccc(Cl)c1)O3 | 22000
O=C(O)C[C@@H]1COc2cc3c(cc21)OC[C@@H](c1cccc(Br)c1)O3 | 17800
O=C(O)C[C@@H]1COc2cc3c(cc21)OC[C@@H](c1cccc(C(F)(F)F)c1)O3 | 19400

###

Measured pEC50 by item
# measured.target: Free fatty acid receptor 1 (Rattus norvegicus, UniProt Q8K3T4)
# Sequence (Q8K3T4 whole entry): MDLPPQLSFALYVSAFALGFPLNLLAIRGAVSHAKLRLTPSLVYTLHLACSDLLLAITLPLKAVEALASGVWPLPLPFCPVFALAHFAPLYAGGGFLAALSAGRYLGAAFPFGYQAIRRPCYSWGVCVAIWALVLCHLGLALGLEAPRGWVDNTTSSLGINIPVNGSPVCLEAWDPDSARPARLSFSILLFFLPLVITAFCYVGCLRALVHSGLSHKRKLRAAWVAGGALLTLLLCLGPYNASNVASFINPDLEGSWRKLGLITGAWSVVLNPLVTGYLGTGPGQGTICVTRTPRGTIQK
# procedure.text: Agonist activity at GPR40 in rat INS-1 cells assessed as glucose-stimulated insulin secretion
pEC50: −log10 of the molar value.

line.notation | pEC50
Cc1cc(OCCCS(C)(=O)=O)cc(C)c1-c1cccc(COc2ccc3c(c2)OC[C@H]3CC(=O)O)c1 | 7.03
O=C(O)C[C@@H]1COc2cc3c(cc21)OC[C@@H](c1cccc(Br)c1)O3 | 7.11
